meta.source: ChEMBL document CHEMBL1148278

Target: Saccharomyces cerevisiae
Experiment: Toxicity against Saccharomyces cerevisiae assessed as growth inhibition in complete medium
So basically: is IC50 under 70 µM? Then 1. Not under? Then -1.

Examples with answers:
Problem: Lab log: compare recorded IC50 with 70 µM; is it strictly lower for `O=C1CCCc2c(ccc3ccccc23)O1` ?
Result: 1

Problem: Do the same for `COc1cc2ccccc2c2c1OC(=O)CC2` please
Result: -1

Problem: Do the same for `O=C1CCc2c(c3c(c4ccccc24)CCC(=O)O3)O1` please
Result: -1

More entries:
Problem: Lab log: compare recorded IC50 with 70 µM; is it strictly lower for CC1Cc2c(ccc3ccccc23)OC1=O (stereo unspecified) ?
Result: 1

Problem: Do the same for `OCCCc1c(O)ccc2ccccc12` please
Result: -1

Problem: Do the same for `COc1ccc2c3c(ccc2c1)OC(=O)CC3` please
Result: -1
